Measured values drawn from ChEMBL document CHEMBL4028827 for this set.

# Test target: Cytochrome P450 11B2, mitochondrial (Homo sapiens, UniProt P19099)
# Sequence (P19099 whole entry): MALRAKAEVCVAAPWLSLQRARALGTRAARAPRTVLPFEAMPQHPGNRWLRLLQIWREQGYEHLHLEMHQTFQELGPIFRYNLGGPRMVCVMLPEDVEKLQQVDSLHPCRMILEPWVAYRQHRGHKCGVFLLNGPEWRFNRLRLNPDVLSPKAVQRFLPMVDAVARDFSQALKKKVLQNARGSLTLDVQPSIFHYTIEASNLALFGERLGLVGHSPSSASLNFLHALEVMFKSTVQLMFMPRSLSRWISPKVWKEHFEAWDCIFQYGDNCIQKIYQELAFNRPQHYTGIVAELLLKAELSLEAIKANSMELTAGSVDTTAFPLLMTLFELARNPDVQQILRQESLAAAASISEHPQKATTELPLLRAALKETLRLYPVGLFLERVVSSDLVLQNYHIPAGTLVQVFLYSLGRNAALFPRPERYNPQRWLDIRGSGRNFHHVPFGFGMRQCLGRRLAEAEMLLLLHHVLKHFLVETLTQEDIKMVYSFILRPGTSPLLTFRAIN
# Assay: Inhibition of human CYP11B2-CLE9 expressed in Chinese hamster V79 cells using 11-deoxycorticosterone as substrate preincubated for 1 hr followed by substrate addition measured for 3 hrs by HTRF assay
pIC50: −log10 of the molar value.
Measurement label: pIC50

Past entries and their recorded results:
Would you mind telling me what pIC50 value was observed for `CC(C)(O)c1cncc(-n2ncc3cc(C#N)ccc32)c1` ?
5.94

Entry `CC(C)(O)c1cncc(-n2ncc3ccccc32)c1` please
7.82

Entry `COC(=O)c1cccc2c1cnn2-c1cncc(C(C)(C)O)c1` please
7.66

Entry `COc1ccc2c(cnn2-c2cncc(C(C)(C)O)c2)c1` please
7.07

Entry `CC(C)(O)c1cncc(-n2ncc3cccc(F)c32)c1` please
9.05

(a) CC(C)(O)c1cncc(-n2nc(C3CC3)c3ccccc32)c1
(b) CC(C)(O)c1cncc(-n2nc(C(F)(F)F)c3ccccc32)c1
Which record shows the lower pIC50: the first, a , or the second, b ? To answer, give the label that identifies your chosen option.
a

(a) C[C@](O)(c1cncc(-n2nc(C(F)(F)F)c3ccccc32)c1)C(F)(F)F
(b) CC(C)(O)c1cncc(-n2ncc3ccc(Cl)cc32)c1
// pick larger pIC50 from pair: a vs b To answer, give the label that identifies your chosen option.
a
(a: 7.11, b: 6.28)
